These entries and their values trace back to patent US7902144B2.

- STUDY SYSTEM: human serum albumin (HSA) (Homo sapiens)
- Construct: purchased Dessau company, Germany
- Sequence (P02768 25-609): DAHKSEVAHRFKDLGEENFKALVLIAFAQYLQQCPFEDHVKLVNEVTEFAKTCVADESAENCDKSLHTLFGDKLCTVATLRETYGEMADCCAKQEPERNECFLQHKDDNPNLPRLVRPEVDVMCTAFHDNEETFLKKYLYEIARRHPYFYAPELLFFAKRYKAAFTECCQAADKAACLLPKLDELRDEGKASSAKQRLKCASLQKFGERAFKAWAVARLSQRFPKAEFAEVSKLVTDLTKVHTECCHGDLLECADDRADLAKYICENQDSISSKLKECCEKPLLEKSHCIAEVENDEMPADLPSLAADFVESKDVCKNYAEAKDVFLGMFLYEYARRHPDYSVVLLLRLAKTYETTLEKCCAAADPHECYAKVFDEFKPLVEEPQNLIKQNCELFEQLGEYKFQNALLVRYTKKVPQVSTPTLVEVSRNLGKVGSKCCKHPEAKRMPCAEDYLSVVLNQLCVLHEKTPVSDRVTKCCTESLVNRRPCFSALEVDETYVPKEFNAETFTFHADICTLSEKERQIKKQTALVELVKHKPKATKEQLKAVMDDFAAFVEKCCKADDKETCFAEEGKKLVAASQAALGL
- EXPERIMENT DESCRIPTION: Binding constants relative to HSA by equilibrium dialysis (Scatchard plot)
- TEST CONDITIONS: pH 7.4, Scatchard plot
Measured KA relative to HSA, listed per entry for reference.

[
  {
    "COMPOUND": "CCCCCCCCCCCCCCCCCC(=O)N/N=C(\\CO)[C@@]1(O)Cc2c(O)c3c(c(O)c2[C@@H](O[C@H]2CC(N)[C@H](O)C(C)O2)C1)C(=O)c1c(OC)cccc1C3=O (stereo partly shown)",
    "KA relative to HSA": "6.1 × 10^6"
  },
  {
    "COMPOUND": "COc1cccc2c1C(=O)c1c(O)c3c(c(O)c1C2=O)C[C@](O)(/C(CO)=N/NC(=O)CCOCCOCCOCCOCCOCCOCCNC(=O)c1cc(I)cc(I)c1I)C[C@H]3O[C@H]1CC(N)[C@H](O)C(C)O1 (stereo partly shown)",
    "KA relative to HSA": "5.5 × 10^5"
  },
  {
    "COMPOUND": "COc1cccc2c1C(=O)c1c(O)c3c(c(O)c1C2=O)C[C@@](O)(C(=O)CO)C[C@@H]3O[C@H]1C[C@H](N)[C@H](O)[C@H](C)O1 [Doxorubicin, doxorubicin, reference compound]",
    "KA relative to HSA": "2.9 × 10^3"
  }
]

With those in mind, consider the next compound.
QUERY: Reported KA relative to HSA for COc1cccc2c1C(=O)c1c(O)c3c(c(O)c1C2=O)C[C@](O)(/C(CO)=N/NC(=O)CCOCCOCCOCCOCCOCCOCCNS(=O)(=O)c1ccc2c(N=Nc4ccccc4)c(O)ccc2c1)C[C@@H]3O[C@H]1CC(N)[C@H](O)C(C)O1 (stereo partly shown) : what is it?
RESULT: 7.2 × 10^7
